- ASSAY_TARGET: UniProtKB P11151
- EXPERIMENT: Induction of bovine LPL stabilization using intralipid as substrate at 25 uM preincubated for 10 mins with human recombinant ANGPTL4 followed by substrate addition measured after 45 mins relative to control
# maps each entry to its Activity

Here is how some molecules turned out for Activity.
{"columns": ["SMILES_STRING", "ASSAY_TARGET", "Activity"],
 "data": [
  ["Cc1ccc(NC(=O)c2cc(N3CCCCC3)ccc2N2C(=O)c3ccc(C(=O)O)cc3C2=O)cc1", "UniProtKB P11151", "36.3%"],
  ["Cc1ccc(NC(=O)c2cccc(N3CCCCC3)c2N2C(=O)c3ccc(C(=O)O)cc3C2=O)cc1", "UniProtKB P11151", "7.3%"]
]}

So for O=C(O)c1ccc2c(c1)C(=O)N(c1ccc(N3CCCCC3)c(C(=O)Nc3ccccc3-c3ccccc3)c1)C2=O , the logged Activity turned out to be 68.5%

---

- ASSAY_TARGET: UniProt:P11151
- Sequence (whole entry): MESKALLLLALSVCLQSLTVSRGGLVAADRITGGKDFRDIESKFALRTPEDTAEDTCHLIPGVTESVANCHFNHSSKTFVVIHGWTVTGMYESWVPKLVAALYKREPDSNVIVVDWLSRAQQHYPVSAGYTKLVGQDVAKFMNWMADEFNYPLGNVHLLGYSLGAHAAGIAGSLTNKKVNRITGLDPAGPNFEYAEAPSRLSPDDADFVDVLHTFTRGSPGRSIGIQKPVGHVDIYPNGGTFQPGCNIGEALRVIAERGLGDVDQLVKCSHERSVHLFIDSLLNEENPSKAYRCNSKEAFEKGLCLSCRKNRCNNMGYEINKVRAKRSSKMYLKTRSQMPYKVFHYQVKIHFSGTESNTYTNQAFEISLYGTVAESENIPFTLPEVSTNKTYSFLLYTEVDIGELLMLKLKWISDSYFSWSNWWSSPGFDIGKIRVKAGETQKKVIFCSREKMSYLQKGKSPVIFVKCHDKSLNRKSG
- EXPERIMENT: Induction of bovine LPL stabilization using intralipid as substrate at 6.25 uM preincubated for 10 mins with human recombinant ANGPTL4 followed by substrate addition measured after 45 mins relative to control
The source made the active and inactive calls. The rule behind the calls is not given here.
MEASURED_METRIC: Activity

{"columns": ["SMILES_STRING", "ASSAY_TARGET", "RECORDED_MEASUREMENT"],
 "data": [
  ["O=C1c2ccccc2C(=O)N1c1ccccc1", "UniProt:P11151", "inactive"],
  ["COCCNc1ccc(N2C(=O)c3ccc(C(=O)O)cc3C2=O)cc1C(=O)Nc1ccc(C)cc1", "UniProt:P11151", "inactive"],
  ["Cc1ccc(NC(=O)c2cc(N3C(=O)c4ccc(C(=O)O)cc4C3=O)ccc2N2CCCCC2)cc1", "UniProt:P11151", "inactive"],
  ["Cc1cccc(NC(=O)c2cc(N3C(=O)c4ccc(C(=O)O)cc4C3=O)ccc2N2CCCCC2)c1", "UniProt:P11151", "inactive"],
  ["Cc1ccc(NC(=O)c2cc(N3C(=O)c4ccc(C(=O)O)cc4C3=O)ccc2N2CCCCC2)cc1Cl", "UniProt:P11151", "66.8%"],
  ["O=C(O)c1ccc2c(c1)C(=O)N(c1ccc(Cl)c(C(=O)NCc3cccnc3)c1)C2=O", "UniProt:P11151", "inactive"],
  ["CCc1ccc(NC(=O)c2cc(N3C(=O)c4ccc(C(=O)O)cc4C3=O)ccc2Nc2ccccc2)cc1", "UniProt:P11151", "37.6%"],
  ["Cc1ccc(NC(=O)c2cc(N3C(=O)c4ccc(C(=O)O)cc4C3=O)ccc2Cl)cc1", "UniProt:P11151", "inactive"]
]}

So for CCc1cccc(NC(=O)c2cc(N3C(=O)c4ccc(C(=O)O)cc4C3=O)ccc2Nc2ccccc2)c1 , the logged Activity turned out to be 44.3%

So for O=C(O)c1ccc2c(c1)C(=O)N(c1ccc(N3CCCCC3)c(C(=O)NCc3cccnc3)c1)C2=O , the logged Activity turned out to be inactive

---

- ASSAY_TARGET: Lipoprotein lipase (Bos taurus) (UniProt P11151)
- EXPERIMENT: Induction of bovine LPL stabilization using intralipid as substrate at 25 uM preincubated for 10 mins with human recombinant ANGPTL4 followed by substrate addition measured after 45 mins relative to control
The source made the active and inactive calls. No cut-off for these calls is given here.
MEASURED_METRIC: Activity

Here is how some molecules turned out for Activity.
{"columns": ["SMILES_STRING", "Activity"],
 "data": [
  ["Cc1ccc(NC(=O)c2cc(Nc3ccc(C)cc3)cc(N3C(=O)c4ccc(C(=O)O)cc4C3=O)c2)cc1", "24.6%"],
  ["Cc1cccc(NC(=O)c2cc(N3C(=O)c4ccc(C(=O)O)cc4C3=O)ccc2N2CCCCC2)c1", "56.6%"],
  ["Cc1ccc(NC(=O)c2cc(-c3nc4ccc(C(=O)O)cc4[nH]3)ccc2N2CCCCC2)cc1", "49%"],
  ["Cc1ccc(NC(=O)c2cc(N3C(=O)c4ccc(C(=O)O)cc4C3=O)ccc2N2CCCCC2)cc1C(F)(F)F", "65.8%"],
  ["O=C(O)c1ccc2c(c1)C(=O)N(c1ccc(N3CCCCC3)c(C(=O)NCc3cccnc3)c1)C2=O", "inactive"]
]}

So for Cc1ccc(NC(=O)c2cc(N3C(=O)c4ccc(C(=O)O)cc4C3=O)ccc2N2CCOCC2)cc1 , the logged Activity turned out to be inactive

So for Cc1ccc(NC(=O)c2ccc(N3CCCCC3)cc2N2C(=O)c3ccc(C(=O)O)cc3C2=O)cc1 , the logged Activity turned out to be 96.7%

So for O=C1c2ccccc2C(=O)N1c1ccccc1 , the logged Activity turned out to be inactive

So for Cc1ccc(NC(=O)c2cc(NC(=O)c3ccc(C(=O)O)cc3C(=O)O)ccc2N2CCCCC2)cc1 , the logged Activity turned out to be 30.6%

So for CCc1cccc(NC(=O)c2cc(N3C(=O)c4ccc(C(=O)O)cc4C3=O)ccc2N2CCCCC2)c1 , the logged Activity turned out to be 71%

So for O=C(O)c1ccc2c(c1)C(=O)N(c1ccc(Nc3ccccc3)c(C(=O)Nc3ccccc3-c3ccccc3)c1)C2=O , the logged Activity turned out to be 73.8%

So for Cc1ccc(NC(=O)c2ccc(N3CCCCC3)c(N3C(=O)c4ccc(C(=O)O)cc4C3=O)c2)cc1 , the logged Activity turned out to be 79%

So for Cc1ccc(NC(=O)c2cc(N3C(=O)c4ccc(C(=O)O)cc4C3=O)ccc2N2CCCCC2)cc1F , the logged Activity turned out to be 72.1%

So for CCc1ccc(NC(=O)c2cc(N3C(=O)c4ccc(C(=O)O)cc4C3=O)ccc2N2CCCCC2)cc1 , the logged Activity turned out to be 47%

So for CCCCCCNC(=O)c1cc(N2C(=O)c3ccc(C(=O)O)cc3C2=O)ccc1NCCCCCC , the logged Activity turned out to be 67.8%

So for COCCNc1ccc(N2C(=O)c3ccc(C(=O)O)cc3C2=O)cc1C(=O)Nc1ccc(C)cc1 , the logged Activity turned out to be inactive

So for Cc1ccc(NC(=O)c2cc(-c3cc4cc(C(=O)O)ccc4[nH]3)ccc2N2CCCCC2)cc1 , the logged Activity turned out to be 24.5%

So for Cc1ccc(NC(=O)c2cc(N3C(=O)c4ccccc4C3=O)ccc2N2CCCCC2)cc1 , the logged Activity turned out to be inactive

Source: ChEMBL document CHEMBL3745639
